biological target: Recombinant human liver GK1 (GST-GK) (Homo sapiens, UniProt P35557); construct: made in house; host or cells: E. coli; assay: In vitro glucokinase activity (G6PDH-coupled NADH assay); assay type: biochemical; settings: 30° C., 5 mM D-glucose, 10% DMSO
Sequence (P35557 1-466 isoform P35557-2): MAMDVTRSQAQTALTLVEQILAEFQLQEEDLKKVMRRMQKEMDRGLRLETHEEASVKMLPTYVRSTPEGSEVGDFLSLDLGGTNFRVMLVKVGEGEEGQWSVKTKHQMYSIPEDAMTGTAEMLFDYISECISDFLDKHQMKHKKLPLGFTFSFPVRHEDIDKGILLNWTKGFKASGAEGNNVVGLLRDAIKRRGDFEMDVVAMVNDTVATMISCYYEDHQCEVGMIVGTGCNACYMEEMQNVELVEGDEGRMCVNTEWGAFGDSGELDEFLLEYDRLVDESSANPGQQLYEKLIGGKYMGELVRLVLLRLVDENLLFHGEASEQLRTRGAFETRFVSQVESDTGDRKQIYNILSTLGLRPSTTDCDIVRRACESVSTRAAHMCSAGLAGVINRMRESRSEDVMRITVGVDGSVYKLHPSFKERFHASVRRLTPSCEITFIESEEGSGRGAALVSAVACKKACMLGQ
measurement-type: SC1.5 (concentration of activator that produced a 50% increase in the activity of GK) (µM)

Some compounds with recorded SC1.5 (concentration of activator that produced a 50% increase in the activity of GK):
Input: Form field: reported SC1.5 (concentration of activator that produced a 50% increase in the activity of GK) of CC(C)(O)Cn1ccc(NC(=O)[C@H](CC2CCCCC2)N2CC(Oc3c(F)cccc3Cl)=CC2=O)n1 [Example 67]
Output: 0.028

Input: // same read-out, input: CCOc1ccccc1OC1=CC(=O)N([C@@H](CC(C)C)C(=O)Nc2ccn(CC(C)(C)O)n2)C1.Cl [Example 81]
Output: 0.932

Input: // same read-out, input: O=C(Nc1ccn(C[C@@H](O)CO)n1)C(CC1(F)CCCC1)N1CC(Oc2c(F)cccc2F)=CC1=O (stereo partly shown) [Example 159]
Output: 2.867

(a) COC1=CC(=O)N([C@@H](CC2CCCC2)C(=O)Nc2ccn(Cc3cccc(C#N)c3)n2)C1 [Example 12]
(b) CC(C)C[C@@H](C(=O)Nc1ccn(C[C@@H]2COC(C)(C)O2)n1)N1CC(Oc2cccc(Cl)c2Cl)=CC1=O [Example 79]
(c) CC(C)C[C@@H](C(=O)Nc1ccn(CC(=O)O)n1)N1CC(Oc2cccc(C3CC3)c2F)=CC1=O [Example 149]
Input: List items by SC1.5 (concentration of activator that produced a 50% increase in the activity of GK) in falling order. Put the labels in the requested order and list them out.
Output: a, c, b

----------
molecular target: Recombinant human liver GK1 (GST-GK) (Homo sapiens); construct: made in house; host or cells: E. coli; assay: In vitro glucokinase activity (G6PDH-coupled NADH assay); assay type: biochemical; conditions: 30° C., 5 mM D-glucose, 10% DMSO
measurement-type: SC1.5 (concentration of activator that produced a 50% increase in the activity of GK) (µM)

(I) O=C(Nc1ccn(C[C@@H](O)CO)n1)[C@H](CC1CCCCC1)N1CC(Oc2ccccc2Cl)=CC1=O
(II) COc1ccccc1OC1=CC(=O)N([C@@H](CC2CCCC2)C(=O)Nc2nccs2)C1
Input: I'd appreciate it if you could identify which of I and II has the greater SC1.5 (concentration of activator that produced a 50% increase in the activity of GK). // return label of chosen record
Output: II
(II: 0.031 µM, I: 0.009 µM)

(a) COc1cccc(OC2=CC(=O)N([C@@H](CC(C)C)C(=O)Nc3ccn(CC(C)(C)O)n3)C2)c1Cl
(b) CSCC[C@@H](C(=O)Nc1ccn(C[C@@H](O)CO)n1)N1CC(Oc2ccccc2Cl)=CC1=O
Input: I'd appreciate it if you could identify which of a and b has the greater SC1.5 (concentration of activator that produced a 50% increase in the activity of GK). // return label of chosen record
Output: b
(b: 0.303 µM, a: 0.078 µM)

(P) O=C(Nc1ccn(C[C@@H](O)CO)n1)[C@H](Cc1c(F)cccc1F)N1CC(Oc2ccccc2Cl)=CC1=O
(Q) O=C(Nc1ccn(C[C@@H](O)CO)n1)C(CC1CCC1)N1CC(Oc2ccccc2Cl)=CC1=O (some centres unmarked)
(R) CC(C)C[C@@H](C(=O)Nc1cnccn1)N1CC(Oc2cccc(C(C)(C)O)c2F)=CC1=O
(S) COc1ccccc1OC1=CC(=O)N(C(COC(C)(C)C)C(=O)Nc2ccn(CC(C)(C)O)n2)C1 (centres unmarked)
Input: Please order the records by their reported SC1.5 (concentration of activator that produced a 50% increase in the activity of GK), lowest number first. Put the labels in the requested order and list them out.
Output: Q, P, R, S
(Q: 0.086 µM, P: 0.371 µM, R: 2.59 µM, S: 9.491 µM)

----------
molecular target: Recombinant human liver GK1 (GST-GK) (Homo sapiens, UniProt P35557); construct: made in house; host or cells: E. coli; assay: In vitro glucokinase activity (G6PDH-coupled NADH assay); format: biochemical; conditions: 30° C., 5 mM D-glucose, 10% DMSO
measurement-type: SC1.5 (concentration of activator that produced a 50% increase in the activity of GK) (µM)

Some compounds with recorded SC1.5 (concentration of activator that produced a 50% increase in the activity of GK):
Input: Hi! What's the reported SC1.5 (concentration of activator that produced a 50% increase in the activity of GK) for CC(C)(O)Cn1ccc(NC(=O)[C@H](CC2CCOCC2)N2CC(Oc3c(F)cccc3F)=CC2=O)n1 on Recombinant human liver GK1 (GST-GK) (Homo sapiens, UniProt P35557)?
Output: 0.058

Input: // same read-out, input: CC(C)(O)Cn1ccc(NC(=O)[C@H](CC2CCCC2)N2CC(OC3CCC3)=CC2=O)n1
Output: 1.991

Input: // same read-out, input: COC1=CC(=O)N([C@@H](CC2CCCC2)C(=O)Nc2nc(C)ns2)C1
Output: 6.186

Input: // same read-out, input: CC(C)OCCn1ccc(NC(=O)[C@H](CC2CCCC2)N2CC(OC3CCCC3)=CC2=O)n1
Output: 1.388

Input: // same read-out, input: CC(C)(O)Cn1ccc(NC(=O)[C@H](CC2CCCCC2)N2CC(Oc3cccc(OC(F)(F)F)c3)=CC2=O)n1
Output: 0.055

(a) CC(C)C[C@@H](C(=O)Nc1ccn(C[C@@H](O)CO)n1)N1CC(Oc2cccc(N3CCCC3)c2F)=CC1=O
(b) Cc1ccccc1OC1=CC(=O)N([C@@H](CC(C)C)C(=O)Nc2ccn(C)n2)C1
Input: Input pair: a , b . Output: entry with lower SC1.5 (concentration of activator that produced a 50% increase in the activity of GK). // return label of chosen record
Output: a

----------
biological target: Recombinant human liver GK1 (GST-GK) (Homo sapiens, UniProt P35557); construct: made in house; host or cells: E. coli; experiment: In vitro glucokinase activity (G6PDH-coupled NADH assay); assay type: biochemical; settings: 30° C., 5 mM D-glucose, 10% DMSO
measurement-type: SC1.5 (concentration of activator that produced a 50% increase in the activity of GK) (µM)

Some compounds with recorded SC1.5 (concentration of activator that produced a 50% increase in the activity of GK):
Input: Form field: reported SC1.5 (concentration of activator that produced a 50% increase in the activity of GK) of COC(C)(C)Cn1ccc(NC(=O)[C@H](CC2CCCC2)N2CC(OC3CCCC3)=CC2=O)n1
Output: 0.545

Input: // same read-out, input: CC(C)C[C@@H](C(=O)Nc1ccn(C[C@@H]2CNC(=O)O2)n1)N1CC(Oc2ccccc2Cl)=CC1=O
Output: 0.628

Input: // same read-out, input: CC(C)(O)Cn1ccc(NC(=O)[C@H](CC2CCCCC2)N2CC(Oc3cccc(F)c3)=CC2=O)n1
Output: 0.034

(1) CC(F)(F)C[C@@H](C(=O)Nc1ccn(C[C@@H](O)CO)n1)N1CC(Oc2ccccc2Cl)=CC1=O
(2) CC(C)C[C@@H](C(=O)Nc1ccn(C[C@@H](O)CO)n1)N1CC(Oc2cccc3c2cnn3C)=CC1=O
Input: I'd appreciate it if you could identify which of 1 and 2 has the greater SC1.5 (concentration of activator that produced a 50% increase in the activity of GK). // return label of chosen record
Output: 1
(1: 4.538 µM, 2: 2.636 µM)

----------
molecular target: Recombinant human liver GK1 (GST-GK) (Homo sapiens); construct: made in house; host or cells: E. coli; assay: In vitro glucokinase activity (G6PDH-coupled NADH assay); format: biochemical; conditions: 30° C., 5 mM D-glucose, 10% DMSO
measurement-type: SC1.5 (concentration of activator that produced a 50% increase in the activity of GK) (µM)

Input: Form field: reported SC1.5 (concentration of activator that produced a 50% increase in the activity of GK) of CC(C)C[C@@H](C(=O)Nc1ccn(C[C@@H](O)CO)n1)N1CC(Oc2cccc(C3CC3)c2F)=CC1=O [Example 147]
Output: 0.105

Input: // same read-out, input: O=C(Nc1ccn(C[C@@H](O)CO)n1)C(CC(F)F)N1CC(Oc2ccccc2Cl)=CC1=O (stereo partly drawn) [Example 221]
Output: 17.303

Input: // same read-out, input: CC(C)(O)Cn1ccc(NC(=O)[C@H](CC2CCCCC2)N2CC(Oc3cccc(F)c3F)=CC2=O)n1 [Example 200]
Output: 0.011

Input: // same read-out, input: CCOc1cccc(OC2=CC(=O)N([C@@H](CC(C)C)C(=O)Nc3ccn(C[C@@H](O)CO)n3)C2)c1F [Example 115]
Output: 0.027

Input: // same read-out, input: CC(C)C[C@@H](C(=O)Nc1ccn(C[C@@H](O)CO)n1)N1CC(Oc2ccccc2Cl)=CC1=O [Example 66]
Output: 0.118

(a) CC(C)C[C@@H](C(=O)Nc1ccn(C[C@@H]2COC(C)(C)O2)n1)N1CC(Oc2cccc(N(C)C)c2F)=CC1=O [Example 139]
(b) CC(=O)Cc1nsc(NC(=O)[C@H](CC(C)C)N2CC(Oc3ccccc3Cl)=CC2=O)n1 [Example 113]
Input: I'd appreciate it if you could identify which of a and b has the greater SC1.5 (concentration of activator that produced a 50% increase in the activity of GK). // return label of chosen record
Output: b
